# experiment-summary: probe aDKK1 binding to arrayed compounds – biochemical, biotinylated probe, 635/667 nm fluorescence, primary screen (AID 1099);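 also: score merges 667nm spot fluorescence with signal to noise across triplicate slides; reference of the scale not given here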
# test-settings: small-molecule microarray, higher = more signal
experimental-endpoint: composite z-score
Lab note: record the figure alone, no unit after it.

Some solved cases for reference:
>  <molecule>
O=C(N1CCCCC1)[C@]1(CCS(=O)(=O)c2ccccc2)N=C(c2ccc(OCCCO)cc2)O[C@@H]1c1ccccc1

>  <composite z-score>
1.02

$$$$
>  <molecule>
O=C(NCC(O)CO)[C@]1(CCS(=O)(=O)c2ccccc2)N=C(c2ccc(OCCCO)cc2)O[C@@H]1c1ccccc1 (stereo partly specified)

>  <composite z-score>
1.28

$$$$
>  <molecule>
COC(=O)[C@@]1(Cc2ccc(F)cc2)[C@H]2c3cc(C(=O)N(C)C)n(CCCNc4ccc(C(F)(F)F)cc4Cl)c3C[C@H]2CN1C(=O)c1ccccc1

>  <composite z-score>
1.4

$$$$
>  <molecule>
CC(c1ccccc1)C(O)C1C=CC2C(=O)N(Cc3ccccc3)C(=O)C2N1n1cnnc1 (stereo unspecified)

>  <composite z-score>
0.492

$$$$
>  <molecule>
C=CCC(OC(C)=O)[C@@H]1[C@@H](N(Cc2ccc(-c3cccc(C(F)(F)F)c3)o2)C(=O)c2ccc(C)cc2)c2cc(OCCCO)ccc2N1C(=O)c1ccc2ccccc2n1 (stereo partly specified)

>  <composite z-score>
-0.164

$$$$
>  <molecule>
CN(C)CCCC[C@@H]1NC(=O)[C@@H]2C[C@H](C(=O)NCc3ccc(F)cc3)[C@H](c3cccc(OCCO)c3)N2C1=O

>  <composite z-score>
0.0666

$$$$
>  <molecule>
CN1C(=O)C2C=CC(C(O)c3ccc(Br)cc3)N(Nc3ccccc3)C2C1=O (stereo unspecified)

>  <composite z-score>
0.528

$$$$
>  <molecule>
COc1ccc([Si](C)(C)[C@H]2[C@H](CC(=O)N3Cc4ccccc4C[C@H]3CO)O[C@@]3(C(=O)N(Cc4cccc(I)c4)c4ccccc43)[C@@H]2C)cc1

>  <composite z-score>
-0.29

$$$$
>  <molecule>
C#C[C@H]1Oc2ccccc2S(=O)(=O)N2CCC[C@@H]12

>  <composite z-score>
-0.215

$$$$
>  <molecule>
CN1C(=O)C2C(C1=O)C1C=C(c3ccc(CO)cc3)C2C(C2CC2)N1Cc1sc2ccccc2c1Cl (stereo unspecified)

>  <composite z-score>
-0.197

$$$$

Problem: Return the recorded composite z-score value; entry: CN1C(=O)C2C=CC(C(O)c3ccccc3)N(NC(=O)OC(C)(C)C)C2C1=O (stereo unspecified)
Solution: 0.153

Problem: Return the recorded composite z-score value; entry: `C=CCOC(=O)[C@H]1[C@@H]2C(=O)O[C@@H](c3ccccc3)[C@@H](c3ccccc3)N2[C@@H](c2ccc(OCCOC(=O)[C@H]3C[C@H]4C(=O)N[C@@H](CCCC[N+](C)(C)C)C(=O)N4[C@H]3c3ccc(O)cc3)cc2)[C@]12C(=O)Nc1ccccc12`
Solution: -0.194

Problem: Return the recorded composite z-score value; entry: `NC(=O)[C@]1(Cc2ccccc2)N=C(c2ccc(OCCCO)cc2)O[C@@H]1c1ccccc1`
Solution: 1.2

* * *

# target-entity: Fibroblast growth factor 10 (Homo sapiens)
# experiment-summary: compounds binding fibroblast growth factor 10 – biochemical, small-molecule microarray, 635 nm fluorescence, primary screen (AID 1102)
# test-settings: FGF10 binding, fluorescence 635 nm, higher = more signal
Let's look at some compounds and their measured composite z-score.
Lab note: record the figure alone, no unit after it.

Some solved cases for reference:
>  <compound>
C=C(CCCC)C(=O)CC[C@@H](OC(=O)c1ccccc1-c1ccccc1C(=O)O)c1ccc(CO)o1

>  <target-entity>
Fibroblast growth factor 10 (Homo sapiens)

>  <composite z-score>
1.22

$$$$
>  <compound>
O=c1cccc(-c2cccc3ccccc23)o1

>  <target-entity>
Fibroblast growth factor 10 (Homo sapiens)

>  <composite z-score>
-0.52

$$$$
>  <compound>
CCN(CC)c1ccc(N2CC=CC34O[C@@H]5C=CCCOC(=O)C5[C@H]3C(=O)N(CCCO)[C@@H]4C2=O)cc1 (some centres not stated)

>  <target-entity>
Fibroblast growth factor 10 (Homo sapiens)

>  <composite z-score>
-0.344

$$$$
>  <compound>
COCCOC(=O)N1C(=O)[C@@]2(c3cc(C#Cc4ccc(OC)cc4)ccc31)[C@H](C(N)=O)[C@H]1C(=O)O[C@H](c3ccccc3)[C@H](c3ccccc3)N1[C@@H]2c1ccc(O)cc1

>  <target-entity>
Fibroblast growth factor 10 (Homo sapiens)

>  <composite z-score>
-1.67

$$$$

Next compound, composite z-score to be filled in.
Problem: Recall the reported composite z-score of `COCCOC(=O)N1C(=O)[C@@]2(c3cc(C#CCC(C(=O)OC)C(=O)OC)ccc31)[C@H](c1ccccc1OCCO)N1[C@H](c3ccccc3)[C@H](c3ccccc3)OC(=O)[C@H]1[C@@H]2C(=O)Nc1nc2ccccc2s1` on Fibroblast growth factor 10 (Homo sapiens) and write it down.
Solution: 1.33

// provenance: PubChem BioAssay
